All values here come from paper PMC10250233.

target: CST (CTC1-STN1-TEN1) (human, UniProt Q2NKJ3;Q9H668;Q86WV5 1-1217;1-368;1-123); assay: fluorescence anisotropy; 200 mM LiCl; FA: 200 mM NaCl, KCl or LiCl, 20 mM HEPES pH 7.4, 1 mM DTT, 22-25 C, 375 or 750 pM oligo, Kd,app +/- SEM; EMSA: 20 mM HEPES pH 7.4, 200 mM KCl, 1 nM 32P oligo; conditions: protein: recombinant; tags: 2xFLAG N-term on CTC1; 6xHis N-term on STN1 and TEN1; copies: 1;1;1; label: 5' fluorescein; intramolecular G4 at 3' end, 5' tail; linear in LiCl
Sequence (Q2NKJ3 whole entry, chain 1 of 3): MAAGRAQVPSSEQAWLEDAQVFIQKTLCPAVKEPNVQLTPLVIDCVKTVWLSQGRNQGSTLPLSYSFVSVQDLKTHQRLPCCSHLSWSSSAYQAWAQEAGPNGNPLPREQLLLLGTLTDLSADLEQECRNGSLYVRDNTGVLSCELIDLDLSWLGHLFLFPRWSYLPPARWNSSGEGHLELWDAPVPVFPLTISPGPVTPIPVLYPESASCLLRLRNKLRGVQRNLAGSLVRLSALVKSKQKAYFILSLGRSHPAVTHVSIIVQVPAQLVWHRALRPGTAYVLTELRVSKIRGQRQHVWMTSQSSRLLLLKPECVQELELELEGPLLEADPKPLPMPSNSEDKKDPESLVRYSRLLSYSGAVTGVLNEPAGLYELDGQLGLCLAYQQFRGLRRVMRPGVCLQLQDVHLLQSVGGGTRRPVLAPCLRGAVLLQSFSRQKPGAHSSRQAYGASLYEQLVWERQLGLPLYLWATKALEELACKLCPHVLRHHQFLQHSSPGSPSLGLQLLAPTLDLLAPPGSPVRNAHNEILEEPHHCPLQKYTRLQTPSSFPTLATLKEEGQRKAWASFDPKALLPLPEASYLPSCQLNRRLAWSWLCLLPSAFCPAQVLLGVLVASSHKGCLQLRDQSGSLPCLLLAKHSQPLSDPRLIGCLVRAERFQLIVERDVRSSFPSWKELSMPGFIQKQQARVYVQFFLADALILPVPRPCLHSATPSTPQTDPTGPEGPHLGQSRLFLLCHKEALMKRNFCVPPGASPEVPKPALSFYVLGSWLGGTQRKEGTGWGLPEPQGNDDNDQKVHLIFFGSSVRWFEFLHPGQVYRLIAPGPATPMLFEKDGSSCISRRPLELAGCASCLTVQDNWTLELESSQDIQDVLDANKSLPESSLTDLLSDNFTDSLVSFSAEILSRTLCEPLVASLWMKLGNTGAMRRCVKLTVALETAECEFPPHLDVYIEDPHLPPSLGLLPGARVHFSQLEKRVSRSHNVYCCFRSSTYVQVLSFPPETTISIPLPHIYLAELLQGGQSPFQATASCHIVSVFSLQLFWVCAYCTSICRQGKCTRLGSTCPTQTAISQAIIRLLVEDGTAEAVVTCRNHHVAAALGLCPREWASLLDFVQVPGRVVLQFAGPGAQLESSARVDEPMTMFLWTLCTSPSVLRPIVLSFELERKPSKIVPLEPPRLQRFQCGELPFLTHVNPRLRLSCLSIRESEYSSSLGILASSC
Sequence (Q9H668 whole entry, chain 2 of 3): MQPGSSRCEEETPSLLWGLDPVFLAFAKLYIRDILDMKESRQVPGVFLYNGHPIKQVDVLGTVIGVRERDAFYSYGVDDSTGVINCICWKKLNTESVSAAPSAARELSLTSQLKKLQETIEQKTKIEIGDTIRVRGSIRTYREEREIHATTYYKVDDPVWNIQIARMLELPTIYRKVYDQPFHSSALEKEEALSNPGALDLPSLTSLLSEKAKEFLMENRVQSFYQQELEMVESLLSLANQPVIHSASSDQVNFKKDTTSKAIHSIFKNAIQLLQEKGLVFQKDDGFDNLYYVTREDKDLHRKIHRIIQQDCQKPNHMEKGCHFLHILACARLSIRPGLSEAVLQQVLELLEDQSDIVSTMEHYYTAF
Sequence (Q86WV5 whole entry, chain 3 of 3): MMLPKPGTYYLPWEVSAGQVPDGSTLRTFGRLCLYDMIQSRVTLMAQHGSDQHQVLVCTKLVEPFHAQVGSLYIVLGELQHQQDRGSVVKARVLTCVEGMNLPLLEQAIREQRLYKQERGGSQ
pKd: −log10 of the molar value.

>  <binder>
AGTGTGAGTGTGAGTGTTAGGGTTAGGGTTAGGGTTAGGG (structured_DNA) [Tel40 3' G4]

>  <pKd>
8.96

$$$$
